Tested on: Alopecurus myosuroides (ALOMY)
Test: Example B post-emergence herbicidal test, ALOMY
Assay type: in vivo
Condition Summary: Alopecurus myosuroides, 312 h, rate 250 g/ha, evaluated after 13 days, scale 0-100, read-out: Post-emergence activity ALOMY (100=total damage to plant; 0=no damage to plant)
Metric: pest or weed control at 250 g/ha (%)
Express it in %; write the number only.

Cc1cc(C)c(C2C(=O)C/C(=C\C3CCS(=O)(=O)CC3)C2=O)c(C)c1 (centres unmarked) ... 70
Cc1cc(C)c(C2C(=O)CC(CC3CCN(S(C)(=O)=O)CC3)C2=O)c(C)c1 (centres unmarked) ... 100
CCCCS(=O)(=O)N1CCC(CC2CC(=O)C(c3c(C)cc(C)cc3C)C2=O)CC1 (centres unmarked) ... 60
Cc1cc(Br)cc(C)c1C1C(=O)CC(CC2CCOC2)C1=O (centres unmarked) ... 40

In: // pest or weed control at 250 g/ha lookup, key: Cc1cc(C)c(C2=C(OC(=O)C3CCCCC3)CC(CC3CCOC3)C2=O)c(C)c1 (centres unmarked)
Out: 100

In: Entry to check: C=COC(=O)N1CCC(CC2CC(=O)C(c3c(C)cc(C)cc3C)C2=O)CC1 (centres unmarked)
Out: 90

In: Entry to check: Cc1cc(C)c(C2C(=O)CC(CC3CCN(C(=O)C(F)(F)C(F)F)C3)C2=O)c(C)c1 (centres unmarked)
Out: 90

In: Entry to check: Cc1cc(C)c(C2C(=O)C/C(=C\C3CCCOC3)C2=O)c(C)c1 (centres unmarked)
Out: 100

* * *

System: Echinochloa crus-galli (ECHCG)
Test: Example B post-emergence herbicidal test, ECHCG
Type: in vivo
Condition Summary: Echinochloa crus-galli, 312 h, rate 250 g/ha, evaluated after 13 days, scale 0-100, read-out: Post-emergence activity ECHCG (100=total damage to plant; 0=no damage to plant)
Metric: pest or weed control at 250 g/ha (%)
Express it in %; write the number only.

Please review the entries below; each comes with its answer.
Cc1cc(C)c(C2C(=O)CC(CC3CCN(C(=O)c4cc(F)c(Cl)nc4Cl)CC3)C2=O)c(C)c1 (stereo not shown) [Compound T106] ... 30
Cc1cc(C)c(C2C(=O)CC(CC3CCN(C(=O)c4ccsc4)CC3)C2=O)c(C)c1 (stereo not shown) [Compound T126] ... 60
CON1CCC(CC2CC(OC(=O)c3ccccc3)=C(c3c(C)cc(C)cc3C)C2=O)CC1 (stereo not shown) [Compound P55] ... 100

In: Request: pest or weed control at 250 g/ha, test system Echinochloa crus-galli (ECHCG), entry Cc1cc(C)c(C2C(=O)CC(CC3CCN(C(=O)OCC(Cl)(Cl)Cl)CC3)C2=O)c(C)c1 (stereo not shown) [Compound T86]
Out: 80

In: Entry to check: CC(=O)N1CCC(CC2CC(=O)C(c3c(C)cc(C)cc3C)C2=O)CC1 (stereo not shown) [Compound T24]
Out: 100

* * *

Each item that follows carries a reported pest or weed control at 250 g/ha.
Test system: Lolium perenne (LOLPE)
Test: Example B post-emergence herbicidal test, LOLPE
Assay type: in vivo
Condition Summary: Lolium perenne, 312 h, rate 250 g/ha, evaluated after 13 days, scale 0-100, read-out: Post-emergence activity LOLPE (100=total damage to plant; 0=no damage to plant)
Experimental: Seeds of a variety of test species were sown in standard soil in pots. […] After 13 days for pre and post-emergence, the test was evaluated (100=total damage to plant; 0=no damage to plant). […]
I'd appreciate it if you wrote the number followed by its unit.

Please review the entries below; each comes with its answer.
Cc1cc(C)c(C2=C(OC(=O)OCC(C)C)CC(CC3CCOC3)C2=O)c(C)c1 (stereo not shown) ... 100%
Cc1cc(C)c(C2C(=O)C/C(=C\C3CCN(S(C)(=O)=O)C3)C2=O)c(C)c1 (stereo not shown) ... 70%
Cc1cc(C)c(C2=C(OC(=O)OC(C)C)CC(CC3CCOC3)C2=O)c(C)c1 (stereo not shown) ... 100%

In: // pest or weed control at 250 g/ha lookup, key: Cc1cc(C)c(C2C(=O)CC(CC3CCN(C(=O)c4ccc(-c5ccccc5)cc4)CC3)C2=O)c(C)c1 (stereo not shown)
Out: 40%

In: Entry to check: Cc1cc(C)c(C2C(=O)CC(CC3CCN(C(=O)c4cccs4)CC3)C2=O)c(C)c1 (stereo not shown)
Out: 50%

In: Entry to check: Cc1cc(C)c(C2C(=O)CC(C(O)C3CCSCC3)C2=O)c(C)c1 (stereo not shown)
Out: 10%

In: Entry to check: Cc1cc(C)c(C2=C(OC(=O)C(C)(C)C)CC(CCC3CCOCC3)C2=O)c(C)c1 (stereo not shown)
Out: 100%

In: Entry to check: Cc1cc(C)c(C2=C(OC(=O)c3c(C)noc3C)CC(CC3CCN(C(=O)c4c(C)noc4C)C3)C2=O)c(C)c1 (stereo not shown)
Out: 80%

In: Entry to check: Cc1cc(C)c(C2C(=O)CC(CC3CCN(S(C)(=O)=O)C3)C2=O)c(C)c1 (stereo not shown)
Out: 80%
